In this section we review reported EC50 values for a set of molecules.
# system.under.test: human FXR (NR1H4) (Homo sapiens, UniProt Q96RI1)
# Sequence (Q96RI1 whole entry, the tested form may be a part): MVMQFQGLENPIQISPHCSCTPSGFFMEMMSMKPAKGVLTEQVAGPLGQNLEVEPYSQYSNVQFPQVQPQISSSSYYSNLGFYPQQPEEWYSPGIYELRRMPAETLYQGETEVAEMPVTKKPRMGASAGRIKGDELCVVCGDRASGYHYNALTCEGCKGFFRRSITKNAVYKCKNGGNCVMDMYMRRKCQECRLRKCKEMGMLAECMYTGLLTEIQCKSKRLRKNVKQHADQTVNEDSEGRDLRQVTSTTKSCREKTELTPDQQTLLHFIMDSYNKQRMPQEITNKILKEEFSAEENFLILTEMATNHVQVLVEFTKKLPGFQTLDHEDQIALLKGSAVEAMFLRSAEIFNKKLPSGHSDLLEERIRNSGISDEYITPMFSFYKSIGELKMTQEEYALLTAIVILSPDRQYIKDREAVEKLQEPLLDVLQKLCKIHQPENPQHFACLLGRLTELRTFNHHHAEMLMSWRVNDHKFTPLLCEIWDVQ
# run.description: Human FXR (NR1H4) Assay (Gal4 promoter driven luciferase reporter assay in CHO cells)
# cond: CHO cells expressing human NR1H4, 22 hours incubation, potency ranges
# Text: Determination of a ligand mediated Gal4 promoter driven transactivati on to quantify ligand binding mediated activation of FXR. […] The principle application of this reporter assay system is to quantify functional activity of human FXR. […] Luminescence intensity of the reaction is quantified using a plate-reading luminometer, Envision. […] Thus, quantifying changes in luciferase expression in the treated reporter cells provides a sensitive surrogate measure of the changes in FXR activity. […]

molecule | quantity.measured | measured
O=C(O)c1cc(F)c2nc(N[C@H]3CC[C@@H](OCc4c(-c5c(Cl)cccc5Cl)noc4C4CC4)CC3)sc2c1 | EC50 | 100 to 1000 nM
CC(C)Oc1cc(C(=O)O)cc2sc(N[C@H]3CC[C@@H](OCc4c(-c5c(Cl)cccc5Cl)noc4C4CC4)CC3)nc12 | EC50 | < 100 nM
CN(c1ccc2cc(C(=O)O)ccc2n1)[C@@H]1CC[C@H](OCc2c(-c3ccccc3OC(F)(F)F)noc2C2CC2)C1 | EC50 | < 100 nM
CC(C)Oc1cc(C(=O)O)cc2sc(N(C)[C@H]3CC[C@@H](OCc4c(-c5c(Cl)cccc5Cl)noc4C4CC4)CC3)nc12 | EC50 | < 100 nM
CC(C)Oc1cc(C(=O)O)cc2sc(N(C)[C@@H]3CC[C@@H](OCc4c(-c5c(Cl)cccc5Cl)noc4C4CC4)C3)nc12 | EC50 | 100 to 1000 nM

Recorded EC50 for `O=C(O)c1ccc2nc(N[C@H]3CC[C@@H](OCc4c(-c5c(Cl)cccc5Cl)noc4C4CC4)CC3)sc2c1` , please?
< 100 nM

Recorded EC50 for `CC(C)Oc1cc(C(=O)O)cc2sc(N[C@H]3CC[C@@H](OCc4c(-c5ccccc5OC(F)(F)F)noc4C4CC4)CC3)nc12` , please?
< 100 nM

Recorded EC50 for CC(C)Oc1cc(C(=O)NS(=O)(=O)C2CC2)cc2sc(N[C@@H]3CCC(OCc4c(-c5c(Cl)cccc5Cl)noc4C4CC4)C3)nc12 (some centres unmarked) , please?
100 to 1000 nM
